tested on: U251 CNS; experiment: NCI-60 one-dose screen, 48 h (100 = growth as untreated, 0 = no growth, -100 = all killed); settings: 10 µM unless noted
This is part of a sample that, as a whole, favours compounds with a hit. Of some 83,000 tested, about 20% had one in any assay.
Entries are sorted into classes by growth as follows: lo = under 30%, mid = from 30% up to 90%, hi = 90% and over

                                   molecule  answerlabel
0  CCOC(=O)c1sc(NC(=O)COc2ccc(/C=C3\Cc4ccc(Cl)cc4C3=O)cc2)nc1C           hi
1  CC(=O)C1CC(C)CCC1C(C)C (stereo not given)           hi
2  CC(=O)C(C(C)=O)C(c1ccccc1)C(C(C)=O)C(C)=O           hi
3  C[C@@H](Oc1cc(C(=O)Nc2ccc(C(=O)N3CCN(C)CC3)cc2)nnc1N)c1c(Cl)ccc(F)c1Cl          mid
4  CCN1CCN(c2cc(C)nc(N(CCCNc3ccnc4cc(Cl)ccc34)Cc3ccc4c(c3)OCO4)n2)CC1           lo

Kindly state the category for this molecule: CC(N)C(Cc1ccccc1)c1ccc(Cl)cc1 (stereo not given)
mid

Kindly state the category for this molecule: CCOc1cc2ncc(C#N)c(Nc3ccc(OCc4ccccn4)c(Cl)c3)c2cc1NC(=O)/C=C/CN(C)C
lo

Kindly state the category for this molecule: CC1(O)CCC2CC3OC3(C)CCC3OC3(C)C(O)CC1C2(C)C (stereo not given)
hi

Kindly state the category for this molecule: COc1c(OCCCN2CCOCC2)ccc2c3n(c(=NC(=O)c4cnc(N)nc4)nc12)CCN3
lo

* * *

test system: NCI/ADR-RES ovarian; assay: NCI-60 one-dose screen, 48 h (100 = growth as untreated, 0 = no growth, -100 = all killed); details: 10 µM unless noted
This is part of a sample that, as a whole, favours compounds with a hit. Of some 83,000 tested, about 20% had one in any assay.
endpointName: growth (%)
Quick reminder: number only, in %, skip the unit.

                             compoundsmiles  valueunit  measuredvalue
0  COc1cc(N2CCC(N(C)C)CC2)ccc1Nc1ncc(Cl)c(Nc2ccccc2P(C)(C)=O)n1          %           78.1

Which growth value belongs to C[C@@H]1COCCN1c1cc(C2([S@](C)(=N)=O)CC2)nc(-c2ccnc3[nH]ccc23)n1 ?
80.4

Which growth value belongs to CCN(CC)CCOc1ccc(/C(=C(\C)c2ccc(Cl)cc2)c2ccc(Cl)cc2)cc1 ?
81.5

* * *

Measured growth, listed per entry.
tested on: NCI-H23 lung; assay: NCI-60 one-dose screen, 48 h (100 = growth as untreated, 0 = no growth, -100 = all killed); conditions: 10 µM unless noted
Compounds without any hit were thinned out: in the full panel of roughly 83,000, 20% have a hit.
Quick reminder: number only, in %, skip the unit.

The following compounds have reported results that may help.
compound	valueUnit	growth
COCCN1CCN(Cc2ccc(-c3n[nH]c4c3C(=O)c3c(NC(=O)NN5CCOCC5)cccc3-4)cc2)CC1	%	-33.7
CC1(C=O)NC(=O)NC1=O (stereo not drawn)	%	105
Cc1cc(N(CCNc2ccnc3cc(Cl)ccc23)Cc2cccs2)nc(Cl)n1	%	0.24
CC(C)n1c(NCCc2ccc(O)c(O)c2)nc2c1c(=O)n(C)c(=O)n2C	%	87.2
c1cn2cc(-c3ccc4cn[nH]c4c3)nc(Nc3ccc(N4CCOCC4)cc3)c2n1	%	64.8
CC(C)(C)c1ccc(Cn2cc(CSc3nc4ccccc4s3)nn2)cc1	%	90.4
Nc1nc(=S)c2ncn(C3OC(COC(=O)c4ccc(Cl)cc4)C(OC(=O)c4ccc(Cl)cc4)C3OC(=O)c3ccc(Cl)cc3)c2[nH]1 (stereo not drawn)	%	91.9
COC(=O)[C@]12CC[C@@H](C)[C@H](C)[C@@H]1C1=CC[C@@H]3[C@@]4(C)C[C@@H](OC(=O)/C=C/c5ccccc5)[C@H](O)[C@@](C)(CO)[C@@H]4[C@H](O)C[C@@]3(C)[C@]1(C)CC2	%	4.71
COc1ccc(-c2cc3c(C)nc(N)nc3n(C3CCC(OCCO)CC3)c2=O)cn1 (stereo not drawn)	%	15
C1=C\COCc2cc(ccc2OCCN2CCCC2)Nc2nccc(n2)-c2cccc(c2)COC/1	%	-17.3

Which growth value belongs to COC(=O)C1CCc2sc3ncnc(Nc4cn[nH]c4C(=O)Nc4ccc(CN5CCN(C)CC5)cc4)c3c21 (stereo not drawn) ?
-9.63

Which growth value belongs to CO[C@H]1C[C@@H]2CC[C@@H](C)[C@@](O)(O2)C(=O)C(=O)N2CCCC[C@H]2C(=O)O[C@H]([C@H](C)C[C@@H]2CC[C@@H](OCCO)[C@H](OC)C2)CC(=O)[C@H](C)/C=C(\C)[C@@H](O)[C@H](OC)C(=O)[C@H](C)C[C@H](C)\C=C/C=C/C=C/1C ?
54.9

Which growth value belongs to CCN1CCN(c2nc(C)cc(N(CCNc3ccnc4cc(Cl)ccc34)Cc3ccc4c(c3)OCO4)n2)CC1 ?
67.5

* * *

system: NCI-H460 lung; test: NCI-60 one-dose screen, 48 h (100 = growth as untreated, 0 = no growth, -100 = all killed); details: 10 µM unless noted
About 83,000 compounds went through this panel and 20% of them were active in at least one assay; those are over-represented in the sample as a whole.
endpointName: growth (%)
Quick reminder: number only, in %, skip the unit.

The following molecules have reported results that may help.
>>> print(df.to_string())
                             compoundsmiles  valueunit  measuredvalue
0  C[C@@H](Oc1cc(-c2cnn(C3CCNCC3)c2)cnc1N)c1c(Cl)ccc(F)c1Cl          %          -64.4
1                    CSc1nc2ncnc(SC)c2[nH]1          %            109

Which growth value belongs to c1cc[n+](Cc2c3ccccc3cc3c2ccc2ccccc23)cc1 ?
42.8

* * *

system: COLO 205 colon; assay: NCI-60 one-dose screen, 48 h (100 = growth as untreated, 0 = no growth, -100 = all killed); settings: 10 µM unless noted
Compounds without any hit were thinned out: in the full panel of roughly 83,000, 20% have a hit. Calls of active or inactive are those of the source. How the source made its calls: active means growth percent below 10; inactive means the rest.
endpointName: growth

The following compounds have reported results that may help.
compound	growth
Cc1sc2c(c1C)c(=O)nc1c(-c3nc(-c4ccccc4)cs3)n[nH]n12	102% (inactive)
CN1CC[C@H](c2c(O)cc(O)c3c(=O)cc(-c4ccccc4Cl)oc23)[C@H](O)C1	-55% (active)
Cc1ccc(-n2nc(C(C)(C)C)cc2NC(=O)NCc2cc(F)ccc2Oc2ccc3c(cnn3CCO)c2)cc1	-13% (active)

Which growth value belongs to CN1CCN(c2ccc(C(=O)Nc3n[nH]c4ccc(Cc5cc(F)cc(F)c5)cc34)c(NC3CCOCC3)c2)CC1 ?
-73.6% (active)

Which growth value belongs to COC(=O)[C@@H](OC)[C@@H]1Cc2cc3cc(OC4CC(OC5CC(O)C(O)C(C)O5)C(O)C(C)O4)c(C)c(O)c3c(O)c2C(=O)[C@H]1OC1CC(OC2CC(OC3CC(C)(O)C(O)C(C)O3)C(O)C(C)O2)C(O)C(C)O1 (stereo partly specified) ?
-37.2% (active)

Which growth value belongs to COc1ccc(C2CC(=O)c3c(O)c(OC)c(OC)c(OC)c3O2)cc1O (stereo unspecified) ?
67.3% (inactive)

* * *

system: MALME-3M melanoma; test: NCI-60 one-dose screen, 48 h (100 = growth as untreated, 0 = no growth, -100 = all killed); conditions: 10 µM unless noted
The panel holds about 83,000 compounds, 20% with a hit somewhere; the sample as a whole holds those more often. The source made the active and inactive calls. How the source made its calls: active means growth percent below 10; inactive means the rest.
endpointName: growth

The following molecules have reported results that may help.
                                   molecule  endpointname     measuredvalue
0  COc1cc2ncnc3c2cc1OCCCCCN(C)Cc1ccc(Br)cc1N3        growth  71.8% (inactive)
1  CN1CCC(CNc2ccc3ncc(-c4cccc(OC(F)(F)F)c4)n3n2)CC1        growth   -90.2% (active)
2  O=C(Nc1cn[nH]c1-c1nc2ccc(CN3CCOCC3)cc2[nH]1)NC1CC1        growth  51.8% (inactive)

Now consider the entry below.
Which growth value belongs to CCCCCCCC(=O)SCC/C=C/[C@@H]1CC(=O)NCc2cc(ccn2)C2=N[C@@](C)(CS2)C(=O)N[C@@H](C(C)C)C(=O)O1 ?
11.4% (inactive)

* * *

tested on: KM12 colon; assay: NCI-60 one-dose screen, 48 h (100 = growth as untreated, 0 = no growth, -100 = all killed); details: 10 µM unless noted
About 83,000 compounds went through this panel and 20% of them were active in at least one assay; those are over-represented in the sample as a whole.
Assign yes (1) whenever growth does not fall below 10%; assign no (0) whenever it does.

# example entries with known answers
                                   compound  targetortestsystem  answerlabel
0  CS(=O)(=O)N1CCc2c(-c3cnc(N)nc3)nc(N3CCOCC3)nc21          KM12 colon       no (0)
1  CCS(=O)(=O)N1CCN(c2ccc(Nc3ncc(C(N)=O)c(NC4CC4)n3)cc2)CC1          KM12 colon      yes (1)
2  Cc1cnc(Nc2ccc(OCCN3CCCC3)cc2)nc1Nc1cccc(S(=O)(=O)NC(C)(C)C)c1          KM12 colon       no (0)
3  CNC(=O)c1nn(C)c2c1C(C)(C)Cc1cnc(Nc3ccc(N4CCN(C)CC4)cc3)nc1-2          KM12 colon       no (0)
4  CN1CCC(CNc2ccc3ncc(-c4cccc(OC(F)(F)F)c4)n3n2)CC1          KM12 colon       no (0)
5  CC(N)C(Cc1ccccc1)c1ccc(Cl)cc1 (centres undefined)          KM12 colon      yes (1)
6  COc1cc(-c2nc(C(=O)Nc3ccc(C)cc3)nn2-c2ccc(F)c(F)c2)cc(OC)c1OC          KM12 colon      yes (1)
7  CC(=O)Oc1ccccc1C(=O)N=C1[Se]CCN1C(=O)c1ccccc1OC(C)=O          KM12 colon       no (0)
8  O=C1C=CC2(NN=C(c3ccccc3)N2c2cccc(Cl)c2)c2cccc(O)c21 (centres undefined)          KM12 colon      yes (1)
9  O=C1C=CC2(NN=C(c3ccccc3)N2c2cccc(Cl)c2)C(Cl)=C1 (centres undefined)          KM12 colon      yes (1)

Would you say CCc1cnn2c(NCc3ccc[n+]([O-])c3)cc(N3CCCC[C@H]3CCO)nc12 shows growth at minimum 10%?
no (0)

Would you say CCN(CC)c1cc2oc3cc(N)cc(=N)c-3nc2cc1C shows growth at minimum 10%?
yes (1)

Would you say c1cn2cc(-c3ccc4cn[nH]c4c3)nc(Nc3ccc(N4CCOCC4)cc3)c2n1 shows growth at minimum 10%?
yes (1)

Would you say CC1(C=O)NC(=O)NC1=O (centres undefined) shows growth at minimum 10%?
yes (1)

Would you say CCN(CCO)CCCOc1ccc2c(Nc3cc(CC(=O)Nc4cccc(F)c4)[nH]n3)ncnc2c1 shows growth at minimum 10%?
yes (1)

Would you say CCN1CCN(CCCN(C[C@H]2Cc3ccccc3CN2)[C@H]2CCCc3cccnc32)CC1 shows growth at minimum 10%?
yes (1)

Would you say Cc1cc(NCC(=O)Nc2ccc(-c3nc4ccccc4s3)cc2)no1 shows growth at minimum 10%?
yes (1)
